Read-out: Urokinase-type plasminogen activator receptor (uPAR), PLAUR (gene 5329)
Test: BSK_BE3C_uPAR: BioMAP Diversity Plus: BE3C Assay for Urokinase-type plasminogen activator receptor (uPAR) Biomarker Activity (AID 2283039)
Conditions: primary human bronchial epithelial cells; actives raise or lower the signal
Activity calls are given as the source filed them. How the source made its calls: active means hit-call score of the fitted dose curve at least 0.9, where 1 is the maximum; inactive means score below 0.9.
Labels: y = active, n = inactive

CCCCCCCCCCCCO :: n
CCCCCc1ccc(N)cc1 :: y
CN(C[C@@H](CC[N+]12CCC(C3CCCCC3)(CC1)CC2)c1ccc(Cl)c(Cl)c1)C(=O)c1cc(C(F)(F)F)cc(C(F)(F)F)c1 :: y
O=C(O)c1ccccc1-n1cc(C(=O)O)c(=O)c2cc(Nc3c(F)cc(F)cc3Cl)c(Cl)cc21 :: n
CC(C)(O)c1ccc(CNC(=O)c2cccnc2Oc2ccc3nonc3c2)cc1 :: n
CCCCCCCCCCCO :: n
O=C1CCC(C2CCCCC2)CC1 :: n
OC12N=C(c3ccccc3)SC1Cc1cc(Cl)ccc12 (stereo unspecified) :: n
NCc1cccc(C2CCN(C(=O)c3ccc(C#Cc4ccccc4F)o3)CC2)c1 :: y
O=c1c(-c2ccc(O)cc2)coc2cc(O)cc(O)c12 :: n
c1ccc2ccccc2c1 :: n
O=C1O[C@H]([C@@H](O)CO)C(O)=C1O :: n
CN(C)C(=O)C1(N2CCCCC2)CCN(CC[C@@]2(c3ccc(Cl)c(Cl)c3)CN(C(=O)c3ccccc3)CCO2)CC1 :: y
O=C(Nc1ccc(Cl)cc1)Nc1ccc(Cl)c(Cl)c1 :: y
O=C1c2ccccc2C(=O)N1CCc1noc(-c2ccc(CN3CCCCCC3)s2)n1 :: n
CC(=O)N1CCN(c2ccc(OC[C@H]3CO[C@](Cn4ccnc4)(c4ccc(Cl)cc4Cl)O3)cc2)CC1 :: n
CC(O)CC(C)(C)O (stereo unspecified) :: n
Oc1ccccc1 :: n
c1ccc(C[n+]2cccc3ccccc32)cc1 :: n
COCC(C)OCC(C)OCC(C)O (stereo unspecified) :: n
O=C(O)Cn1c(=O)n(Cc2ccc(Br)cc2F)c(=O)c2ccc(Cl)cc21 :: n

----------
Read-out: CYP4A11 (gene 1579)
Experiment: LTEA_HepaRG_CYP4A11: Life Technologies and Expression Analysis (LTEA) Assay for CYP4A11 using HepaRG (AID 2283486)
Details: mRNA level, 48 h; actives raise or lower the signal
Activity calls are given as the source filed them. How the source made its calls: active means hit-call score of the fitted dose curve at least 0.9, where 1 is the maximum; inactive means score below 0.9.
test_readout: AC50

CC(C)(C)c1cc(/C=C2\SC(N)=NC2=O)cc(C(C)(C)C)c1O :: 29.1 µM (active)
CN1C(=O)CC[C@H]1c1cccnc1 :: inactive
CN(C)c1ccc(C(=C2C=CC(=[N+](C)C)C=C2)c2ccc(N(C)C)cc2)cc1 :: 3.37 µM (active)
Cc1cc(F)ccc1-c1cc(N2CC[C@@H](O)[C@H]2CO)ncc1N(C)C(=O)C(C)(C)c1cc(C(F)(F)F)cc(C(F)(F)F)c1 :: 15.7 µM (active)
CC1=CC(=O)/C(=C(/C)O)C(=O)O1 :: inactive
Cc1ccc2oc(CN(Cc3ccccc3)C(=O)Nc3c(F)cc(F)cc3F)c(-c3ccc(Cl)cc3)c2c1 :: 34.8 µM (active)
CC(C)(c1cc(Br)c(O)c(Br)c1)c1cc(Br)c(O)c(Br)c1 :: inactive
O=C1CCC(C2CCCCC2)CC1 :: inactive
CCCCCCCCCC(=O)O :: inactive
CCCOC(=O)c1cc(O)c(O)c(O)c1 :: 6.67 µM (active)
Clc1ccccc1C(c1ccccc1)(c1ccccc1)n1ccnc1 :: 15.8 µM (active)
COCC(C)OCC(C)OCC(C)O (stereo not given) :: inactive
OC12N=C(c3ccccc3)SC1Cc1cc(Cl)ccc12 (stereo not given) :: 49 µM (active)
Clc1cc(Cl)c2c(c1)N=C1CCCCCN1C2 :: inactive
Cc1cccc2ccccc12 :: inactive
O=c1c(-c2ccc(O)cc2)coc2cc(O)cc(O)c12 :: inactive
O=c1[nH]sc2ccccc12 :: inactive
CCCC(=O)OCCC(C)C :: inactive
COc1ccc2cc(S(=O)(=O)N[C@H](CC(=O)N[C@H](Cc3ccc(CN4[C@H](C)CCC[C@@H]4C)cc3)C(=O)N(C)C(C)C)c3ccc4c(c3)OCO4)ccc2c1 :: 20.7 µM (active)
NCc1cccc(C2CCN(C(=O)c3ccc(C#Cc4ccccc4F)o3)CC2)c1 :: 82.4 µM (active)
CCCCCCCCCCCC[N+](C)(C)C :: 76.2 µM (active)
COc1cc(C(=O)NC2CCN(C)CC2)ccc1Nc1ncc2c(n1)N(C1CCCC1)CC(F)(F)C(=O)N2C :: 3.34 µM (active)
C[C@]12CC[C@@H]3c4ccc(O)cc4CC[C@H]3[C@@H]1CC[C@H]2O :: 78.2 µM (active)
Oc1ccc2ccccc2c1 :: inactive
CCCCCCCCCCCO :: inactive
CC[C@@H]1C[C@H](N(Cc2cc(C(F)(F)F)cc(C(F)(F)F)c2)C(C)=O)c2cc(C(F)(F)F)ccc2N1C(=O)OC(C)C :: 15.6 µM (active)
CCN(Cc1cccc(S(=O)(=O)O)c1)c1ccc(C(=C2C=CC(=[N+](CC)Cc3cccc(S(=O)(=O)O)c3)C=C2)c2ccccc2S(=O)(=O)[O-])cc1 :: inactive
CCN(CC)C(=O)c1cc(S(=O)(=O)Cc2ccccc2)c(N2CCC(c3ccccc3)CC2)cc1N(CC)CCN(C)C :: 30.5 µM (active)
CC[C@H](NC(=O)c1cc(F)ccc1NS(=O)(=O)c1cccc2cccnc12)c1ccccc1 :: 22.4 µM (active)
Cc1ccc(C(C)C)cc1 :: inactive
c1ccc(C[n+]2cccc3ccccc32)cc1 :: 22.3 µM (active)
O=C1O[C@H]([C@@H](O)CO)C(O)=C1O :: inactive
CCCCCCCCOc1ccc(C(=O)c2ccccc2)c(O)c1 :: inactive
CCCCCc1ccc(N)cc1 :: inactive
CN(C)C(=O)C1(N2CCCCC2)CCN(CC[C@@]2(c3ccc(Cl)c(Cl)c3)CN(C(=O)c3ccccc3)CCO2)CC1 :: 14.9 µM (active)
